Target: HCV polymerase (NS5B) type 1b (Hepatitis C virus genotype 1b, UniProt P26663)
Construct: a region encoding NS5B (J Virol 1991 March, 65(3), 1105-13, 544 amino acids after deletion of 47 amino acids on the C-terminal); 6xHis (C); made in house; host or cells: Escherichia coli
Sequence (P26663 2420-2963): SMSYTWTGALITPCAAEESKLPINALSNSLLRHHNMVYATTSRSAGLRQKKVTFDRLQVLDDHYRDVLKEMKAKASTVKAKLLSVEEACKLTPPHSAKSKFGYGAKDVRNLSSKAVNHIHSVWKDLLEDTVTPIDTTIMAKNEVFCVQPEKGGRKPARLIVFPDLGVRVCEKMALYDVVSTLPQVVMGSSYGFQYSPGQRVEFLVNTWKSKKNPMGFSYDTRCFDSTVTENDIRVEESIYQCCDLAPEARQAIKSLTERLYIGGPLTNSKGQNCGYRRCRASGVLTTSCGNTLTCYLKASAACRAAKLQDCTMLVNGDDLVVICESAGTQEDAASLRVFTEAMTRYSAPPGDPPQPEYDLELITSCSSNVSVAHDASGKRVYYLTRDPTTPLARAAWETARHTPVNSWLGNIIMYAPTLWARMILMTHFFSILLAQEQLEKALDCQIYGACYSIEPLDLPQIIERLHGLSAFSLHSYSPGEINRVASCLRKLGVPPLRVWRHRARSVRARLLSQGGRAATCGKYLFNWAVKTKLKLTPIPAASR
Test: Assay of enzyme (HCV polymerase) inhibitory activity, type 1b enzyme
Type: biochemical, HCV BK strain (type 1b)
Details: HCV polymerase inhibitory activity (IC50), 1b, type 1b enzyme 0.5 μg/ml, 25° C., 60 min
Structures can show the parent of a compound that is named as a salt.
outcome_measure: IC50

compound: Cc1nc(N2CCN(S(=O)(=O)c3ccc(OC(F)(F)F)cc3)[C@@H](C(=O)NCc3ccc(C(C)C)cc3)C2)sc1C(=O)NCCC(=O)O [Example 361]
study_target: HCV polymerase (NS5B) type 1b (Hepatitis C virus genotype 1b, UniProt P26663)
IC50: < 100 nM
--
compound: CC(=O)N1CCN(S(=O)(=O)c2ccc(C(C)C)cc2)[C@@H](C(=O)NCCN2CCCCC2)C1 [Example 402]
study_target: HCV polymerase (NS5B) type 1b (Hepatitis C virus genotype 1b, UniProt P26663)
IC50: > 1000 nM
--
compound: CCC(F)(F)c1ccc(CNC(=O)[C@H]2CN(c3cnc(C(N)=O)cn3)CCN2S(=O)(=O)c2ccc(OC(F)(F)F)cc2)cc1 [Example 586]
study_target: HCV polymerase (NS5B) type 1b (Hepatitis C virus genotype 1b, UniProt P26663)
IC50: < 100 nM

List IC50 for every entry below, keeping the order given.
1. CC(=O)N1CCN(S(=O)(=O)c2ccc(C(C)C)cc2)[C@@H](C(=O)NCc2ccc(C(F)(F)F)cc2)C1 [Example 18]
2. CCCc1ccc(CNC(=O)[C@H]2CN(c3cnc(C(=O)O)cn3)CCN2S(=O)(=O)c2ccc(CC)s2)cc1 [Example 522]
3. CC(=O)N1CCN(S(=O)(=O)c2ccc(C(C)C)cc2)C(C(=O)NCc2ccc(S(N)(=O)=O)cc2)C1 (centres unmarked) [Example 38]

Output line:
1: 100 to 1000 nM; 2: < 100 nM; 3: > 1000 nM

The following compounds each have a reported value; give each one's IC50.
1. CCCc1ccc(CNC(=O)[C@H]2CN(c3nc4c(s3)CN(C(=O)OCc3ccccc3)CC4)CCN2S(=O)(=O)c2ccc(OC(F)(F)F)cc2)cc1 [Example 534]
2. CCc1ccc(CNC(=O)[C@H]2CN(C(C)=O)CCN2S(=O)(=O)c2ccc(C(C)C)cc2)cc1 [Example 232]
3. CCC(F)(F)c1ccc(CNC(=O)[C@H]2CN(c3cnc4c(n3)NC(=O)OC4)CCN2S(=O)(=O)c2ccc(OC(F)(F)F)cc2)cc1 [Example 616]
4. CC(=O)N1CCN(S(=O)(=O)c2ccc(C(C)C)cc2)[C@@H](C(=O)NCCc2c[nH]cn2)C1 [Example 433, hydrochloride]
5. CC(=O)N1CCN(S(=O)(=O)c2ccc(OC(F)(F)F)cc2)[C@@H](C(=O)NCc2ccc(O)cc2)C1 [Example 613]
6. CC(C)c1ccc(S(=O)(=O)N2CCN(C3=NCCN3)CC2C(=O)NCc2ccc(C(F)(F)F)cc2)cc1 (centres unmarked) [Example 103]

Output line:
["< 100 nM", "100 to 1000 nM", "< 100 nM", "> 1000 nM", "> 1000 nM", "> 1000 nM"]

For every item below, please supply its IC50.
1. CC(=O)N1CCN(S(=O)(=O)c2ccc(C(C)C)cc2)C(C(=O)NCc2ccccc2)C1 (centres unmarked) [Example 49]
2. CCCN(CCC)CCC(=O)N1CCN(S(=O)(=O)c2ccc(I)cc2)C(C(=O)NCc2ccc(N(C)C)cc2)C1 (centres unmarked) [Example 114]

Output line:
> 1000 nM
> 1000 nM
